Tested on: HIV-1 LTR-III G-quadruplex (FAM/TAMRA-labeled LTR-III)
Assay: FRET melting assay, LTR-III G4
Type: binding
Conditions: Table S1 primary screening, ligand:ODN 50:1, singlicate
Please respond with Yes when measured LTR-III ΔTm is strictly beneath -0.4 °C, and with No in all other cases.

• COc1ccc(C=CC2=NC(=Cc3cc(OC)ccc3OC)C(=O)N2C)cc1 [AI 118] = No
• COC(=O)c1noc(C(=O)N2CCCCC2)c1-c1ccc(OC)cc1 [SA 561C] = Yes
• COc1ccc(O)c(/C=C2N=C(/C=C/c3ccncc3)N(C)C\2=O)c1 [N 848.3] = No
• COc1ccc(/C=C/C2=NC(=C\c3ccc(O)cc3OC)/C(=O)N2C)cc1 [N 1052] = No
• CC(C)OC(=O)c1noc(C(=O)NC2CCCCC2)c1-c1ccccc1 [SA 325E] = Yes
• COc1ccc(C=C2N=C(C=C(O)c3ccc(Br)cc3)N(C)C2=O)cc1 [N 537] = No
• CC(C)OC(=O)c1noc(=O)c(O)c1-c1cccc2ccccc12 [SA 300B] = Yes
